Test protocol: Single ascending dose IV study in healthy adult subjects (safety, PK)
Type: in vivo, human
Applied conditions: human, plasma, intravenous; across the CD101 doses 50-400 mg; read-out: Total body clearance
*1 amine or outer side, *2 acyl side, *3 side chain or, on linkers, in order; H or OH if unused. Where a SMILES comes first, the peptide text is derived from it. Bridges are numbered along the chain shown (N, C = ends). [ ]: non-standard residue; d: D form. The star is where a group is joined. Orn(4R-OH,5R-OCH2CH2NMe3+) = C[N+](C)(C)CCO[C@@H](N[*:3])[C@H](O)C[C@H](N[*:1])C(=O)[*:2]; pTerphenylCO(4''-OnC5H11) = CCCCCOc1ccc(-c2ccc(-c3ccc(C(=O)*)cc3)cc2)cc1; hTyr(3S-OH,4S-OH) = N[C@H](C(=O)O)[C@H](O)[C@@H](O)c1ccc(O)cc1; Pro(3S-OH,4S-Me) = C[C@H]1CN[C@H](C(=O)O)[C@H]1O; Hyp = O=C(O)[C@@H]1C[C@@H](O)CN1
Outcome measure: clearance

Task: Reported clearance, molecule CCCCCOc1ccc(-c2ccc(-c3ccc(C(=O)N[C@H]4C[C@@H](O)[C@@H](OCC[N+](C)(C)C)NC(=O)[C@@H]5[C@@H](O)[C@@H](C)CN5C(=O)[C@H]([C@@H](C)O)NC(=O)[C@H]([C@H](O)[C@@H](O)c5ccc(O)cc5)NC(=O)[C@@H]5C[C@@H](O)CN5C(=O)[C@H]([C@@H](C)O)NC4=O)cc3)cc2)cc1 [CD101] ({pTerphenylCO(4''-OnC5H11)}-[Orn(4R-OH,5R-OCH2CH2NMe3+)]T[Hyp][hTyr(3S-OH,4S-OH)]T[Pro(3S-OH,4S-Me)]; lactam 1-C) : ____
Output: ~4 mL/min

These entries and their values trace back to patent US20240108684A1.
